# assay target: T1, bovine serum albumin (BSA) (bovine, UniProt P02769 25-607)
# T1 construct: Control antigen coated at 1% in PBS (pH 7.4); also called negative control antigen
# T1 sequence (P02769 25-607 limits assumed): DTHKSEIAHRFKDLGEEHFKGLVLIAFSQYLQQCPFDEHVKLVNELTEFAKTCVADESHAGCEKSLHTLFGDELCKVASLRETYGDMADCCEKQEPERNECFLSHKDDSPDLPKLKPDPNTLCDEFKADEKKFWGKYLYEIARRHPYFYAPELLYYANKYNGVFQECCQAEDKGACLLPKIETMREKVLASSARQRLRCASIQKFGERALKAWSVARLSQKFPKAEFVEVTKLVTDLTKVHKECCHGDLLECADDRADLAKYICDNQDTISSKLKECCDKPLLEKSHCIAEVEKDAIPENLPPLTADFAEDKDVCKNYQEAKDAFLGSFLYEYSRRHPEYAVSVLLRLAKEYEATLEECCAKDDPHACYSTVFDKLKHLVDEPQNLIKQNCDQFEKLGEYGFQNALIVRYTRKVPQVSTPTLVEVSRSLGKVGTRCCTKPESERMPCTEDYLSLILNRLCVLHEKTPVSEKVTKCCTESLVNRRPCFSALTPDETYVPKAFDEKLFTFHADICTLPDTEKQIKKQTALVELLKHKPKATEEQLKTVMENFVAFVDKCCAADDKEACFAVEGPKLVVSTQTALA
# protocol details: phage ELISA, 1% BSA coated, anti-M13-HRP detection
Reported OD492 nm is given for each of the following binders.
Just the number in OD492 nm, nothing appended.

>>> recorded_result("SC05-179 (scFv, Vl 134-244); also called single-chain phage antibody SC05-179) scFv: EVQLVESGGGLVKPGGSLGLSCAASGFFFSDYSMSWIRQAPGKGLEWLSNISGSGHSTKYAESMRGRITISRDNAKKSLSLQLNSLRAEDTAVYFCVRGGGYRMDVWGQGTTVTVSSGTGGSGGTGSGTGGSTQSALTQPRSVPGSPGQSVTISCTGTSSDVGGYNYVSWYQQHPGKAPKLMIYDVSKRPSGVPDRFSGSKSGNTASLTVSGLQAEDEADYYCSSYAGSNNFVVFGGGTKLTVL")
0.045

Note: attention shifts to another entry.
Any idea what its OD492 nm is? The binder is SC06-049 (scFv, Vl 137-246); also called single-chain phage antibody SC06-049) scFv: QVQLVQSGAEVKKPGESLKISCKGSGYSFTSYWIGWVRQMPGKGLEWMGIIYPGDSDTRYSPSFQGQVTISADKSIGTAYLQWSSLKASDTAMYYCARLFRVRGGHFDSWGQGTLVTVSSGTGGSGGTGSGTGGSTQSALTQPASVSGSPGQSITISCTGTNSDVGGYNYVSWYQQHPGKAPKLLIYDVTNRPSGVSNRFSASKSGNTASLTISGLQAEDEADYYCSSFTSSSTRVFGGGTKLTVL
0.042
